Biological target: human leukocyte elastase (HLE) (Homo sapiens)
Sequence (P08246 30-267): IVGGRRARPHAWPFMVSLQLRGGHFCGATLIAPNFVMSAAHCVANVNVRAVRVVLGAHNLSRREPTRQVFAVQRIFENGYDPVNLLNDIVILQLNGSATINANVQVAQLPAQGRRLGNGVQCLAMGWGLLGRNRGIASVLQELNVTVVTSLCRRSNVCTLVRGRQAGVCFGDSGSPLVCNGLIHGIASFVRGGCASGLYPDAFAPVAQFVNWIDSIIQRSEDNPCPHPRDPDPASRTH
MEASURED ATTRIBUTE: IC50 (µM)
One number for each entry, in µM.

Required: IC50, one value per compound below.
1. COC(=O)/C(Br)=C1/C(=O)N2C(C(=O)OC(c3ccccc3)c3ccccc3)=C(COC(C)=O)CS[C@H]12
2. CO[C@H]1C(=O)N2C(C(=O)OC(c3ccccc3)c3ccccc3)=C(COC(C)=O)CS(=O)(=O)[C@H]12 [Compound 37, reference compound]
3. CO[C@H]1C(=O)N2C(C(=O)OC(c3ccccc3)c3ccccc3)=C(COC(C)=O)CS[C@H]12 [Compound 36, reference compound]
4. C=C=C1C(=O)N2C(C(=O)OC(c3ccccc3)c3ccccc3)=C(COC(C)=O)CS[C@H]12 [Compound 7, Benzhydryl 7-vinylidenecephalosporanate]
5. [2H]C(=C=C1C(=O)N2C(C(=O)OC(c3ccccc3)c3ccccc3)=C(COC(C)=O)CS(=O)(=O)[C@H]12)C(C)(C)C
6. CC(=O)OCC1=C(C(=O)OC(c2ccccc2)c2ccccc2)N2C(=O)/C(=C\c3ccccc3)[C@H]2S(=O)(=O)C1

0.21
0.28
5.35
9
13.5
6

* * *

target: porcine pancreatic elastase (PPE) (Sus scrofa, UniProt P00772)
Sequence (P00772 27-266): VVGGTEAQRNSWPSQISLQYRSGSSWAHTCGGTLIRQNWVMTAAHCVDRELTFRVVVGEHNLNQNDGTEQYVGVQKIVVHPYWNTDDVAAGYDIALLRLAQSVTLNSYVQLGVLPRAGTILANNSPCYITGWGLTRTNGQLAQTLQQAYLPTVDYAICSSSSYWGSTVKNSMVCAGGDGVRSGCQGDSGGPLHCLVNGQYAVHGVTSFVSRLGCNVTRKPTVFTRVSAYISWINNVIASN
pIC50: −log10 of the molar value.
Kindly state pIC50 for each of the entries shown.

Illustrative cases are given below, each with its answer.
COMPOUND	STUDY TARGET	ASSAY VALUE
CC(=O)OCC1=C(C(=O)OC(c2ccccc2)c2ccccc2)N2C(=O)/C(=C/C(=O)OC(C)(C)C)[C@H]2S(=O)(=O)C1	porcine pancreatic elastase (PPE) (Sus scrofa, UniProt P00772)	< 5.00
CC(=O)OCC1=C(C(=O)OC(c2ccccc2)c2ccccc2)N2C(=O)/C(=C/c3ccccn3)[C@H]2SC1	porcine pancreatic elastase (PPE) (Sus scrofa, UniProt P00772)	< 5.00
CC(=O)OCC1=C(C(=O)OC(c2ccccc2)c2ccccc2)N2C(=O)C(=C=CBr)[C@H]2SC1	porcine pancreatic elastase (PPE) (Sus scrofa, UniProt P00772)	< 5.00

Can you give me pIC50 for all of these, one by one?
1. CC(=O)OCC1=C(C(=O)OC(c2ccccc2)c2ccccc2)N2C(=O)[C@@H](N)[C@H]2SC1 [Compound 1, Benzhydryl 7β-aminocephalosporanate]
2. CC(=O)OCC1=C(C(=O)OC(c2ccccc2)c2ccccc2)N2C(=O)C(=C(Cl)Cl)[C@H]2S(=O)(=O)C1

< 5.00
< 5.00

Hi! Can you tell me pIC50 for each of these compounds?
1. CC(=O)OCC1=C(C(=O)OC(c2ccccc2)c2ccccc2)N2C(=O)/C(=C/C=O)[C@H]2SC1
2. CC(=O)OCC1=C(C(=O)OC(c2ccccc2)c2ccccc2)N2C(=O)C[C@H]2SC1 [Compound 33, reference compound]
3. CC(=O)/C=C1/C(=O)N2C(C(=O)OC(c3ccccc3)c3ccccc3)=C(COC(C)=O)CS(=O)(=O)[C@H]12

[5.28, "< 5.00", 5.22]

// each listed compound needs a value for pIC50
1. COC(=O)/C=C1/C(=O)N2C(C(=O)OC(c3ccccc3)c3ccccc3)=C(COC(C)=O)CS(=O)(=O)[C@H]12
2. CC(=O)OCC1=C(C(=O)OC(c2ccccc2)c2ccccc2)N2C(=O)/C(=C/c3ccccc3)[C@H]2S(=O)(=O)C1
3. CC(=O)OCC1=C(C(=O)OC(c2ccccc2)c2ccccc2)N2C(=O)C(=C=CC(C)(C)C)[C@H]2SC1
4. CC(=O)OCC1=C(C(=O)OC(c2ccccc2)c2ccccc2)N2C(=O)C(=O)[C@H]2SC1 [Compound 2, Benzhydryl 7-oxocephalosporanate]
5. C=C=C1C(=O)N2C(C(=O)OC(c3ccccc3)c3ccccc3)=C(COC(C)=O)CS[C@H]12 [Compound 7, Benzhydryl 7-vinylidenecephalosporanate]

1. < 5.00
2. < 5.00
3. 5.26
4. < 5.00
5. 6.17

Please report pIC50 with porcine pancreatic elastase (PPE) (Sus scrofa, UniProt P00772) for item CON(C)C(=O)/C=C1/C(=O)N2C(C(=O)OC(c3ccccc3)c3ccccc3)=C(COC(C)=O)CS(=O)(=O)[C@H]12 .
< 5.00
